# Test system: MES-SA/Dx5
# procedure.summary: MTT cell viability assay, multidrug resistant MES-SA/Dx5
# Assay type: cell-based, Human
# study.conditions: MES-SA/Dx5 (Human uterus), multidrug resistant, 48 hours, MTT, average of three experiments; read-out: IC50 values (growth inhibition constants)
Documented pIC50 across a set of compounds
Conceptually, pIC50 converts a concentration in mol/L into minus its log10.

Would you please look over these solved cases?
>  <smiles.representation>
CC[C@]1(O)C[C@@H]2CN(CCc3c([nH]c4ccccc34)[C@@](C(=O)OC)(c3cc4c(cc3OC)N(C)[C@H]3[C@@](O)(C(=O)OC)[C@H](OC(C)=O)[C@]5(CC)C=CCN6CC[C@]43[C@@H]65)C2)C1

>  <system.under.test>
MES-SA/Dx5

>  <pIC50>
6.14

$$$$
>  <smiles.representation>
CC(=O)O[C@H]1C(=O)[C@@]2(C)[C@H]([C@H](OC(=O)c3ccccc3)[C@]3(O)C[C@H](OC(=O)[C@H](O)[C@@H](NC(=O)c4ccccc4)c4ccccc4)C(C)=C1C3(C)C)[C@]1(OC(C)=O)CO[C@@H]1C[C@@H]2O

>  <system.under.test>
MES-SA/Dx5

>  <pIC50>
5.07

$$$$

Prompt: Please supply the value of reported pIC50 for the item "COc1ccc(Nc2nc(N)c(C(=O)c3ccccc3)s2)cc1"
Completion: 6.46

* * *

# Test system: CaSki
# procedure.summary: MTT cell viability assay, CaSki
# Format: cell-based
# study.conditions: Ca-Ski, CaSki (Human cervix), 48 hours, average of three experiments, read-out: IC50 values (growth inhibition constants)
Documented pIC50 across a set of molecules
Conceptually, pIC50 converts a concentration in mol/L into minus its log10.

>  <smiles.representation>
CC(=O)O[C@H]1C(=O)[C@@]2(C)[C@H]([C@H](OC(=O)c3ccccc3)[C@]3(O)C[C@H](OC(=O)[C@H](O)[C@@H](NC(=O)c4ccccc4)c4ccccc4)C(C)=C1C3(C)C)[C@]1(OC(C)=O)CO[C@@H]1C[C@@H]2O

>  <pIC50>
7.70

$$$$

Prompt: Give CaSki pIC50 for the following molecule: "COc1ccc(Nc2nc(N)c(C(=O)c3ccccc3)s2)cc1"
Completion: 6.70
